biological target: SARS-CoV-2 PL^pro (Severe acute respiratory syndrome coronavirus 2)
The molecules listed here are annotated with their IC50.
Hi! Could you send only the number? It should be in µM, unit omitted.

Examples from the recorded data:
N[C@@H](Cc1cc(I)c(Oc2cc(I)c(O)c(I)c2)c(I)c1)C(=O)O; 15.3
COC(=O)[C@H]1[C@H]2C[C@@H]3c4[nH]c5cc(OC)ccc5c4CCN3C[C@H]2C[C@@H](OC(=O)c2cc(OC)c(OC)c(OC)c2)[C@@H]1OC; 5.7

// moving on: another record for IC50
Task item: Name the recorded IC50 of the molecule listed here: COC(=O)C1=C(C)NC(C)=C(C(=O)OCCN2CCN(C(c3ccccc3)c3ccccc3)CC2)C1c1cccc([N+](=O)[O-])c1 (stereo not drawn) [manidipine-2HCl]
Reply: 14.2
